Target: T1, Recombinant human CD40L (human, UniProt P29965 108-261, limits assumed)
T1 construct: also called CD40 ligand
T1 sequence (looked up): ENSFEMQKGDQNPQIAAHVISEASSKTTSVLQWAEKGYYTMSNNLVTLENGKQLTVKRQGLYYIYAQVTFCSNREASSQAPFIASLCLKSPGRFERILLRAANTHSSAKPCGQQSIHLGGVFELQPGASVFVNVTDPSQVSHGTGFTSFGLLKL
Experiment: CD40L/CD40-Fc receptor binding assay;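 also: plate assay with coated human CD40-Fc, bound ligand detected via HRP anti-biotin antibody and TMB, OD at 450 nm, lower signal indicates stronger inhibition by dAb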
measurement.name: binding result

binder	binding result
DOM-73 (other, VH dAb) VH: EVQLLESGGGLVQPGGSLRLSCAASGFTFSKYDMSWVRQAPGKGLEWVSTILEDGLTTYYADSVKGRFTISRDNSKNTLYLQMNSLRAEDTAVYYCAKPGRLFDYWGQGTLVTVSS	binds
DOM.108 (other, Vk dAb) VL: DIQMTQSPSSLSASVGDRVTITCRASQAIGHRLRWYQQKPGKAPKLLIYHRSKLQSGVPSRFSGSGSGTDFTLTISSLQPEDFATYYCQQRAVRPFTFGQGTKVEIKR	binds
DOM.136 (other, VH dAb) VH: EVQLLESGGGLVQPGGSLRLSCAASGFTFDGYRMGWVRQAPGKGLEWVSSIAPDGNYTYYADSVKGRFTISRDNSKNTLYLQMNSLRAEDTAVYYCAKFWGMQFDYWGQGTLVTVSS	binds
DOM.145 (other, Vk dAb) VL: DIQMTQSPSSLSASVGDRVTITCRASQTIYTSLSWYQQKPGKAPKLLIHYGSVLQSGVPSRFSGSGSGTDFTLTISSLQPEDSATYYCQQVHQAPTTFGQGTKVEIKR	binds
DOM.104 (other, Vk dAb) VL: DIQMTQSPSSLSASVGDRVTITCRASQAIGHRLRWYQQKPGKAPKLLIYHRSKLQSGVPSRFSGSGSGTDFTLTISSLQPEDFATYYCQQVRFSPYTFGQGTKVEIKR	binds
DOM.175 (other, Vk dAb) VL: DIQMTQSPSSLSASVGDRVTITCRASQPISGGLRWYQQKPGKAPKLLIYSTSMLQSGVPSRFSGSGSGTDFTLTISSLQPEDFATYYCQQLYSAPYTFGQGTKVEIKR	binds
DOM8.111 (other, VH dAb) VH: EVQLLESGGGLVQPGGSLRLSCAASGFTFERYPMTWVRQAPGKGLEWVSTIHGSGSATYYADSVKGRFTISRDNSKNTLYLQMNSLRAEDTAVYYCAKGPYTSRHNSLGHFDYWGQGTLVTVSS	binds
DOM.138 (other, VH dAb) VH: EVQLLESGGGLVQPGGSLRLSCAASGFTFLAYWMVWVRQAPGKGLEWVSSISPSGTHTYYADSVKGRFTISRDNSKNTLYLQMNSLRVEDTAVYYCAKYTEPGLGSFDYWGQGTLVTVSS	binds
DOM.184 (other, VH dAb) VH: EVQLLESGGGLVQPGGSLRLSCAASGFTFSDYEMMWVRQAPGKGLEWVSSITSHGGSTYYADSVKGRFTISRDNSKNTLYLQMNSLRAEDTAVYYCAKPDKDFDYWGQGTLVTVSS	binds
DOM.178 (other, VH dAb) VH: EVQLLESGGGLVQPGGSLRLSCAASGFTFEDFDMAWVRQAPGKGLEWVSSINDQGSLTYYADSVKGRFTISRDNSKNTLYLQMNSLRAEDTAVYYCAKPDQFFDYWGQGTLVTVSS	binds

Could you report binding result for every entry in the following list?
1. DOM.177 (other, VH dAb) VH: EVQLLESGGGLVQPGGSLRLSCAASGFTFSNYYMVWVRQAPGKGLEWVSAIDEWGFATYYADSVKGRFTISRDNSKNTLYLQMNSLRAEDTAVYYCAKHWEFTSDTSRFDYWGQGTLVTVSS
2. DOM-80 (other, VH dAb) VH: EVQLLESGGGLVQPGGSLRLSCAASGFTFGRYQMAWVRQAPGKGLEWVSSISSDGGGTYYADSVKGRFTISRDNSKNTLYLQMNSLRAEDTAVYYCAKPSRRFDYWGQGTLVTVSS
3. DOM.102 (other, Vk dAb) VL: DIQMTQSPSSLSASVGDRVTITCRASQHIGHHLRWYQQKPGKAPKLLIYHRSHLQSGVPSRFSGSGSGTDFTLTISSLQPEDSATYYCQQWDRPPYTFGQGTKVEIKR
4. DOM-87 (other, Vk dAb) VL: DIQMTQSPSSLSASVGDRVTITCRASQDIDESLMWYQQKPGKAPRLLIYGVSYLQSGVPSRFSGSGSGTDFTLTISSLQPEDFATYYCQQRWKAPFTFGQGTKVEIKR
5. DOM.209 (other, VH dAb) VH: EVQLLESGGGLVQPGGSLRLSCAASGFTFADYEMWWVRQAPGKGLEWVSAISRQGFATYYADSVKGRFTISRDNSKNTLYLQMNSLRAEDTAVYYCAKDLERDDFDYWGQGTLVTVSS
6. DOM-81 (other, VH dAb) VH: EVQLLESGGGLVQPGGFLRLSCAASGFTFELYPMAWVRQAPGKGLEWVSSISPVGFLTYYADSVKGRFTISRDNSKNTLYLQMNSLRAEDTAVYYCAKGHEGSYTPRSAFDYWGQGTLVTVSS

Result:
binds
binds
binds
binds
binds
binds
